system: IGROV1 ovarian; test: NCI tumour cell line growth inhibition, 48 h; in the data active = GI50 below about 0.43 µM; inactive = the rest
Your response should consist of one outcome taken from true (1) (active), false (0) (inactive)

C[As](C)SCC(COC(=O)c1ccccc1)OC(=O)c1ccccc1 (stereo not given): false (0)
Cc1nn(-c2ccccc2)c2ncc3c(c12)C(=O)N(Cc1ccccc1)C3=O: false (0)
Cc1cc(N2CCOCC2)nc(N(CCNc2ccnc3cc(Cl)ccc23)Cc2cccs2)n1: false (0)

Lookup: Kindly provide the recorded test outcome for the following compound: O=C(/C=C\c1ccc(Cl)c(Cl)c1)c1ccccc1
Found: false (0)

Lookup: Which outcome was assigned to C=CC(=O)N1CC[C@@H](Oc2nc(Nc3ccc(N4CCC(N5CCN(C)CC5)CC4)cc3)c(C(N)=O)nc2CC)C1 in this test?
Found: false (0)

Lookup: Could you please tell me the result logged for COc1cc2c(cc1Nc1nc(Nc3ccsc3C(N)=O)c3cc[nH]c3n1)N(C(=O)CN(C)C)CCC2 in this assay?
Found: false (0)

Lookup: Each compound tested received a call. Report the one for COc1ccc(/C=C2\CC(C)CC3C2=NN(C(C)=O)C3c2ccc(OC)c(OC)c2)cc1OC (stereo not given) .
Found: false (0)

Lookup: State the result this test recorded for CCN(CC)CCCC(C)NC(=S)N/N=C(\C)c1ccccn1 (stereo not given) .
Found: false (0)

Lookup: # lookup: test call for COC(=O)[C@@H](C)C[C@H](Cc1ccccc1)NC(=O)c1cccc([C@@H](C[C@H](C(C)C)N(C)C(=O)[C@@H](NC(=O)[C@H]2CCCCN2C)C(C)C)OC(C)=O)n1
Found: true (1)

Lookup: Identify the outcome logged in this assay for the compound shown: CCS(=O)(=O)Nc1ccc(Oc2ccc(F)cc2F)c(-c2cn(C)c(=O)c3[nH]ccc23)c1
Found: true (1)
